These entries and their values trace back to patent US20230192896A1.

Molecular target: T1, non-activatable Factor X (FXn) (Homo sapiens (Human), UniProt P00742 41-488, single biotin on the C-terminal BioTag)
T1 construct: also called BIIB-FX-015
Assay: BLI; class meaning: paragraph 285

>  <binder>
BIIB-12-905 (antibody, V domains shown, IgG) VH: QVQLVESGGGVVQPGRSLRLSCAASGFTFSSYGMHWVRQAPGKGLEWVAVISYDGSNKYYADSVKGRFTISRDNSKNTLYLQMNSLRAEDTAVYYCAKGGTYLDTWGQGTLVTVSS VL: EIVLTQSPGTLSLSPGERATLSCRASQSVRSSYLAWYQQKPGQAPRLLIYGASSRATGIPDRFSGSGSGTDFTLTISRLEPEDFAVYYCQQYGRFPPTFGGGTKVEIK

>  <binding result>
binds

$$$$
>  <binder>
BIIB-12-896 (antibody, V domains shown, IgG) VH: QVQLVQSGAEVKKPGASVKVSCKASGYTFTSYYMHWVRQAPGQGLEWMGIINPSGGSTSYAQKFQGRVTMTRDTSTSTVYMELSSLRSEDTAVYYCARGLGQQRRGFDIWGQGTLVTVSS VL: DIQMTQSPSSVSASVGDRVTITCRASQGISSWLAWYQQKPGKAPKLLIYAASSLQSGVPSRFSGSGSGTDFTLTISSLQPEDFATYYCQQANSFPFTFGGGTKVEIK

>  <binding result>
binds

$$$$
>  <binder>
BIIB-12-1317 (antibody, V domains shown, IgG) VH: QVQLVESGGGVVQPGRSLRLSCAASGFTFSSYGMHWVRQAPGKGLEWVAVISYDGSNKYYADSVKGRFTISRDNSKNTLYLQMNSLRAEDTAVYYCARGVGGHDTRWGQGTLVTVSS VL: DIQMTQSPSSVSASVGDRVTITCRASQGISSWLAWYQQKPGKAPKLLIYAASSLQSGVPSRFSGSGSGTDFTLTISSLQPEDFATYYCQQRHSLPPTFGGGTKVEIK

>  <binding result>
binds

$$$$
